# SYSTEM_TESTED: phosphorylated active hERK2 enzyme (Homo sapiens (Human))
# ASSAY_COMMENT: Active Human ERK2 (hERK2) Activity Assay (IMAP-FP)
# Assay type: biochemical
# EXPERIMENTAL_SETUP: Table 6, 0.5 nM hERK2, 30 μM ATP, 10 point titration, read-out: AERK2 IC50
READOUT_LABEL: pIC50
In plain terms, pIC50 is the concentration in mol/L turned into minus its base-10 logarithm.

CCNc1n[nH]c2cc(NC(=O)N[C@H](C)c3ccc(Cl)c(C)c3)ncc12    8.70
C[C@@H](NC(=O)Nc1cc2[nH]nc(N[C@@H]3COC[C@@H]3F)c2cn1)c1ccccc1    8.36
COC[C@H](NC(=O)Nc1ncc2c(NC(C)C)n[nH]c2c1F)c1ccccc1    8.39

Let's switch to this compound now.
Problem: // lookup pIC50 for COC(=O)N[C@H](C(=O)Nc1n[nH]c2cc(NC(=O)N[C@H](C)c3ccc(F)cc3)ncc12)C(C)C
Result: 7.50

----------
pIC50 listing for selected compounds.
# SYSTEM_TESTED: phosphorylated active hERK2 enzyme (Homo sapiens (Human))
# ASSAY_COMMENT: Active Human ERK2 (hERK2) Activity Assay (IMAP-FP)
# Type: biochemical
# EXPERIMENTAL_SETUP: Table 6, 0.5 nM hERK2, 30 μM ATP, 10 point titration, read-out: AERK2 IC50
In plain terms, pIC50 is the concentration in mol/L turned into minus its base-10 logarithm.

C[C@@H](NC(=O)Nc1cc2[nH]nc(N[C@@H]3CCOC3)c2cn1)c1ccccc1    8.77
C[C@@H](NC(=O)Nc1cc2[nH]nc(NC(=O)Oc3ccccc3)c2cn1)c1ccccc1    8.44

Problem: Test system phosphorylated active hERK2 enzyme (Homo sapiens (Human)); read-out pIC50; what value for CCNc1n[nH]c2cc(NC(=O)N[C@H](COC)c3ccccc3)nc(C)c12 ?
Result: 8.54

Problem: Test system phosphorylated active hERK2 enzyme (Homo sapiens (Human)); read-out pIC50; what value for C[C@@H](NC(=O)Nc1cc2[nH]nc(N3CCC(O)CC3)c2cn1)c1ccccc1 ?
Result: 8.62

Problem: Test system phosphorylated active hERK2 enzyme (Homo sapiens (Human)); read-out pIC50; what value for CC(C)(O)[C@@H](NC(=O)Nc1cc2[nH]nc(N3CCc4ncsc4C3)c2cn1)c1ccc(F)cc1 ?
Result: 9.40

Problem: Test system phosphorylated active hERK2 enzyme (Homo sapiens (Human)); read-out pIC50; what value for C[C@@H](NC(=O)Nc1cc2[nH]nc(NC(=O)OC3CCOC3)c2cn1)c1ccc(F)cc1 (some centres unmarked) ?
Result: 7.82

Problem: Test system phosphorylated active hERK2 enzyme (Homo sapiens (Human)); read-out pIC50; what value for COC[C@@H](NC(=O)Nc1cc2[nH]nc(N3CCC(OC)CC3)c2cn1)c1ccccc1 ?
Result: 9.00

Problem: Test system phosphorylated active hERK2 enzyme (Homo sapiens (Human)); read-out pIC50; what value for COC(=O)Nc1n[nH]c2cc(NC(=O)N[C@@H](c3ccccc3)[C@H]3CCCO3)ncc12 ?
Result: 9.22

----------
IC50 listing for selected molecules.
# SYSTEM_TESTED: phosphorylated active hERK2 enzyme (Homo sapiens (Human), UniProt P28482)
# Sequence (P28482 whole entry): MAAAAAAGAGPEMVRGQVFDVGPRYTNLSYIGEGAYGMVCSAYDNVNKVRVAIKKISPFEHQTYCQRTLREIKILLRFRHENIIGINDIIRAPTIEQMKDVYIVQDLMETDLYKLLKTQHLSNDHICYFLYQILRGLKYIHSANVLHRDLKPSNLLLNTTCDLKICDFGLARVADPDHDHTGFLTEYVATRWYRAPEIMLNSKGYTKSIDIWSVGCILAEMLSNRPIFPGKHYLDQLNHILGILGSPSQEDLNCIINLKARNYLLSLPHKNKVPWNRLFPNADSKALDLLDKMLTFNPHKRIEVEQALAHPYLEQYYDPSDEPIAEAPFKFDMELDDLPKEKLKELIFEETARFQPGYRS
# ASSAY_COMMENT: Active Human ERK2 (hERK2) Activity Assay (IMAP-FP)
# Type: biochemical
# EXPERIMENTAL_SETUP: Table 6, 0.5 nM hERK2, 30 μM ATP, 10 point titration, read-out: AERK2 IC50
# Description: Assays Active Human ERK2 (hERK2) Activity Assay: Activated ERK2 activity was determined in an IMAP-FP assay (Molecular Devices). […] The final reaction in each well of 25 μL consists of 0.5 nM hERK2, 900 nM unlabeled peptide, 80 nM labeled-peptide, and 30 μM ATP. […] Plates were read on EnVision reader after 60 minutes binding equilibration using Fluorescence Polarization protocol (Perkin Elmer).
Please give a number only; it is taken to be in nM.

Problem: Test system phosphorylated active hERK2 enzyme (Homo sapiens (Human), UniProt P28482); read-out IC50; what value for C[C@@H](O)[C@@H](NC(=O)Nc1cc2[nH]nc(N3CCc4ncsc4C3)c2cn1)c1ccccc1 ?
Result: 0.5

Problem: Test system phosphorylated active hERK2 enzyme (Homo sapiens (Human), UniProt P28482); read-out IC50; what value for COC(=O)Nc1n[nH]c2cc(NC(=O)NCc3ccccc3OC)ncc12 ?
Result: 2

Problem: Test system phosphorylated active hERK2 enzyme (Homo sapiens (Human), UniProt P28482); read-out IC50; what value for CCNc1n[nH]c2cc(NC(=O)N[C@H](CO)c3ccccc3)ncc12 ?
Result: 0.7

Problem: Test system phosphorylated active hERK2 enzyme (Homo sapiens (Human), UniProt P28482); read-out IC50; what value for CC(C)OC(=O)Nc1n[nH]c2cc(NC(=O)N[C@H](C)c3ccccc3)ncc12 ?
Result: 12.4

Problem: Test system phosphorylated active hERK2 enzyme (Homo sapiens (Human), UniProt P28482); read-out IC50; what value for CCNc1n[nH]c2cc(NC(=O)NC(c3ccc(F)cc3)C(C)(C)O)ncc12 (centres unmarked) ?
Result: 1.1

Problem: Test system phosphorylated active hERK2 enzyme (Homo sapiens (Human), UniProt P28482); read-out IC50; what value for CCNc1n[nH]c2cc(NC(=O)N[C@H](C)C3CCCCC3)ncc12 ?
Result: 11.7

Problem: Test system phosphorylated active hERK2 enzyme (Homo sapiens (Human), UniProt P28482); read-out IC50; what value for COCCNc1n[nH]c2cc(NC(=O)N[C@H](COC)c3ccccc3)ncc12 ?
Result: 0.7

Problem: Test system phosphorylated active hERK2 enzyme (Homo sapiens (Human), UniProt P28482); read-out IC50; what value for CCNc1n[nH]c2cc(NC(=O)NCc3ccccc3OC(F)F)ncc12 ?
Result: 3.5

Problem: Test system phosphorylated active hERK2 enzyme (Homo sapiens (Human), UniProt P28482); read-out IC50; what value for CCNc1n[nH]c2cc(NC(=O)NCc3c(C)cccc3Cl)ncc12 ?
Result: 11.3

Problem: Test system phosphorylated active hERK2 enzyme (Homo sapiens (Human), UniProt P28482); read-out IC50; what value for COC(=O)Nc1n[nH]c2cc(NC(=O)NC3CNc4ccccc4C3)ncc12 (centres unmarked) ?
Result: 5.8

Problem: Test system phosphorylated active hERK2 enzyme (Homo sapiens (Human), UniProt P28482); read-out IC50; what value for Nc1n[nH]c2c(F)c(NC(=O)N[C@H](COC(F)F)c3ccccc3)ncc12 ?
Result: 1.3

Problem: Test system phosphorylated active hERK2 enzyme (Homo sapiens (Human), UniProt P28482); read-out IC50; what value for CCNc1n[nH]c2cc(NC(=O)NC(C)c3cc(C)ccn3)ncc12 (centres unmarked) ?
Result: 98.3

Problem: Test system phosphorylated active hERK2 enzyme (Homo sapiens (Human), UniProt P28482); read-out IC50; what value for CC(C)(O)[C@@H](NC(=O)Nc1cc2[nH]nc(N3CCc4ncsc4C3)c2cn1)c1ccccc1 ?
Result: 0.3

The measured values listed here are drawn from patent US9233979B2.
